Target: recombinant human ALDH-2 (Homo sapiens)
Sequence (P05091 18-517): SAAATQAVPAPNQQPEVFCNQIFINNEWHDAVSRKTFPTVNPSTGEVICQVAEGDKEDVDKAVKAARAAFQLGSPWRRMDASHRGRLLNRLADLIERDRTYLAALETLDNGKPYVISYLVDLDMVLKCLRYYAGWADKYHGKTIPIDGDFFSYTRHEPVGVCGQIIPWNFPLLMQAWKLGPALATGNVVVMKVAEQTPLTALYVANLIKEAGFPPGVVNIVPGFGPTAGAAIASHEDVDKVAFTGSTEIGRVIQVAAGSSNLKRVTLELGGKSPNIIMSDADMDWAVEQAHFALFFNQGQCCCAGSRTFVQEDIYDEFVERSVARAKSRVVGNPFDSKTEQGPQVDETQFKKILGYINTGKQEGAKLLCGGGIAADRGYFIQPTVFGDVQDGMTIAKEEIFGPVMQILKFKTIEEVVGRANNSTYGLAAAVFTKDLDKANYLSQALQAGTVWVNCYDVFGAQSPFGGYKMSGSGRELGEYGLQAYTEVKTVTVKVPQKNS
Experiment: ALDH-2 inhibition assay
Settings: 60 min pre-incubation; 10 μM = highest concentration tested; read-out: Enzymatic Assays IC50 ALDH2

smiles code	IC50
Cc1nccc(Cl)c1C(=O)NCc1ccc(-c2[nH]c(=O)ccc2F)cc1	100 nM
O=C(NCc1ccc(-c2cccc(=O)[nH]2)nc1)c1c(Cl)cccc1Cl	7 nM
O=C(NCc1ccc(-c2[nH]c(=O)ccc2F)cc1)c1ccccc1Cl	329 nM
Cc1nccc(Br)c1C(=O)NCc1ccc(-c2[nH]c(=O)ccc2F)cc1	28 nM

====

system: HepaRG spheroids; experiment: HepaRG 3D spheroid assay; format: cell-based; settings: minimum effective concentration crossing vehicle control threshold of cell health marker; 100 μM = highest concentration tested
measured quantity: HepaRG 3D Spheroid MEC

smiles code	experimental target	measured
Cc1cccc(Cl)c1C(=O)NCc1ccc(-c2cccc(=O)[nH]2)nc1	HepaRG spheroids	21.0 µM
Cc1cccc(Cl)c1C(=O)NCc1cnc(-c2cccc(=O)[nH]2)nc1	HepaRG spheroids	7.48 µM
Cc1cccc(Cl)c1C(=O)NCc1ccc(-c2cccc(=O)[nH]2)cc1	HepaRG spheroids	10.4 µM
O=C(NCc1ccc(-c2cccc(=O)[nH]2)nc1)c1c(Cl)cccc1Cl	HepaRG spheroids	5.06 µM

====

test system: HepaRG spheroids; assay: HepaRG 3D spheroid assay; type: cell-based; settings: HepaRG spheroid MEC divided by ALDH-2 IC50
Response field label: string, one of Fulfilled (Ratio MEC to ALDH2 strictly below 2000) or Not fulfilled.

smiles code	answer label
O=C(NCc1ccc(-c2cccc(=O)[nH]2)nc1)c1ccccc1Cl	Fulfilled
Cc1cccc(Cl)c1C(=O)NCc1ccc(-c2cccc(=O)[nH]2)nc1	Not fulfilled
Cc1nccc(Cl)c1C(=O)NCc1ccc(-c2cccc(=O)[nH]2)cc1	Fulfilled
Cc1cccc(Cl)c1C(=O)NCc1ccc(-c2cccc(=O)[nH]2)cc1	Fulfilled
Cc1nccc(Br)c1C(=O)NCc1ccc(-c2[nH]c(=O)ccc2F)cc1	Fulfilled
